As shown below, each of these molecules has a reported IC50 value.
- study.target: Nonstructural protein 1 (Influenza A virus, UniProt Q194T2)
- Sequence (Q194T2 whole entry): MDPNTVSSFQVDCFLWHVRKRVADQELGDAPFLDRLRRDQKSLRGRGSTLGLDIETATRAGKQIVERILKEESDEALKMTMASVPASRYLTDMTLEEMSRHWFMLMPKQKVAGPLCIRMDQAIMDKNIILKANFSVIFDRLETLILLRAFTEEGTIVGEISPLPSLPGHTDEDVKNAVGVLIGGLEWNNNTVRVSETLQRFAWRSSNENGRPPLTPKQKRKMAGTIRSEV
- Type: functional, Influenza A virus (A/California/07/2009(H1N1))
The source made the active and inactive calls.

Solved cases (4 shown):
CCN1/C(=C/C=C/c2sc3ccccc3[n+]2CC)Sc2ccccc21; 9.73 µM (active)
CCN(CC)c1ccc(Nc2nc(N3CCOCC3)c3ccccc3n2)cc1; 11.5 µM (active)
COCc1cc(O)nc(Nc2nc3ccc(C)cc3o2)n1; 16.1 µM (active)
OCCN1CCN(Cc2cc(Cl)c3cccnc3c2O)CC1; 3.93 µM (active)

Q: # get_value(readout='IC50', item= `O=C(NCc1ccccn1)C(=O)N/N=C/c1ccccc1O` )
Ans: 14 µM (active)

Q: # get_value(readout='IC50', item= `CCOC(=O)c1cnc2ccc(C)cc2c1Nc1ccc(N2CCOCC2)cc1` )
Ans: 30.7 µM (active)

Data origin, for the record: ChEMBL document CHEMBL1201862
